# MEASUREMENT_PROTOCOL: Inhibition of beta-lactamase IMP-1 (unknown origin) expressed in Escherichia coli LZ2310 assessed as potentiation of ceftazidime antibacterial activity by measuring ceftazidime induced diameter of inhibition zone at 320 uM incubated for 18 hrs by disk diffusion method (reference value: 9 mm)
The entries below are paired with their reported inhibition zone (IZ).
Provide the reading as a plain figure in mm.

Query: I am curious: what inhibition zone (IZ) value has been reported for `O=C(O)c1ccccc1/C=N/n1c(-c2ccccc2O)n[nH]c1=S` ?
Reply: 12

Query: Entry `O=C(O)c1ccccc1/C=N/n1c(-c2cccc(Cl)c2)n[nH]c1=S` : reported inhibition zone (IZ) = ?
Reply: 9

Query: Need inhibition zone (IZ) of `O=C(O)c1ccccc1/C=N/n1c(-c2cccc(-c3ccccc3)c2)n[nH]c1=S` , thanks.
Reply: 9

Query: Please look up its inhibition zone (IZ): `S=c1[nH]nc(-c2ccc(-c3ccccc3)cc2)n1/N=C/c1ccc(OCc2ccccc2)cc1`
Reply: 11
